Target: T1, TNFR1 (Homo sapiens, UniProt P19438)
T1 chain: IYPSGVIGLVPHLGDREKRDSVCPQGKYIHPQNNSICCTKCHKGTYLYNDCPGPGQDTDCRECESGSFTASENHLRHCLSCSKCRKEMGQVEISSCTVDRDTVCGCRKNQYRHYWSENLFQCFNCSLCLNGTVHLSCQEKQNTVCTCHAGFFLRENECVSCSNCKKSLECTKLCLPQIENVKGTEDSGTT
Experiment: yeast display SC50
metric: apparent Kd (screen) (nM)

I = W68A (designed binder) MTLQELLREEALRRAEAEAFRYALELLAEKFPEQKEYLLDLAEEIESQIRSLSGVDVEDVRKFLDKEAAWVKELLAEHPAELAEVEAARAARLAELRAEVEAKVAA
II = E44C (designed binder) MTLQELLREEALRRAEAEAFRYALELLAEKFPEQKEYLLDLAECIESQIRSLSGVDVEDVRKFLDKEWAWVKELLAEHPAELAEVEAARAARLAELRAEVEAKVAA
III = L7F (designed binder) MTLQELFREEALRRAEAEAFRYALELLAEKFPEQKEYLLDLAEEIESQIRSLSGVDVEDVRKFLDKEWAWVKELLAEHPAELAEVEAARAARLAELRAEVEAKVAA
IV = K62F (designed binder) MTLQELLREEALRRAEAEAFRYALELLAEKFPEQKEYLLDLAEEIESQIRSLSGVDVEDVRFFLDKEWAWVKELLAEHPAELAEVEAARAARLAELRAEVEAKVAA
Order field: apparent Kd (screen) | Direction: descending (largest first) Labels, ranked as asked.
II, III, I, IV

1 = K62Q (designed binder) MTLQELLREEALRRAEAEAFRYALELLAEKFPEQKEYLLDLAEEIESQIRSLSGVDVEDVRQFLDKEWAWVKELLAEHPAELAEVEAARAARLAELRAEVEAKVAA
2 = Y37I (designed binder) MTLQELLREEALRRAEAEAFRYALELLAEKFPEQKEILLDLAEEIESQIRSLSGVDVEDVRKFLDKEWAWVKELLAEHPAELAEVEAARAARLAELRAEVEAKVAA
Kindly identify which of 1 and 2 has the larger recorded apparent Kd (screen) value. Write down the label of the entry you select.
2
(2: 22.2 nM, 1: 0.539 nM)
